The values you see were collected from PubChem BioAssay.

# Test system: Sam68 (KHDRBS1)
# assayComment: Sam68 small-molecule binders, primary screen, biochemical, small-molecule microarray, 635 nm fluorescence (AID 1125);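 also: score merges 667 nm channel intensity with signal to noise over triplicate slides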
# experimentalConditions: small-molecule microarray binding, higher = more signal
outcomeMeasure: composite z-score

[
  {
    "compound": "C#CCCCON=C1C[C@@H](O)[C@@H](O)[C@@H]2[C@@H]3C(=O)N(CC)C(=O)[C@@H]3CC[C@@H]12",
    "number": 0.771
  },
  {
    "compound": "CCOC(=O)[C@H](CC(C)C)NC(=O)CCC1CC(OC(=O)NCCc2ccc(F)cc2)CC2(CCCC(COC(=O)NCCc3ccccc3OC)O2)O1 (some centres not stated)",
    "number": 1.29
  },
  {
    "compound": "CC(C)(C)N1C(=O)[C@H]2[C@H]3[C@H](O)[C@H](O)CC(=NOCc4ccccc4)[C@H]3CC[C@H]2C1=O",
    "number": -0.217
  },
  {
    "compound": "Cc1ccc(S(=O)(=O)n2c3ccccc3c3nnc(C(=O)c4ccccc4)nc32)cc1",
    "number": -0.472
  },
  {
    "compound": "CCOC(=O)[C@H](CC(C)C)NC(=O)CCC1CC(OC(=O)NCc2ccc3c(c2)OCO3)CC2(CCCC(COC(=O)NCC3CCCCC3)O2)O1 (some centres not stated)",
    "number": 1.32
  },
  {
    "compound": "CCN1C(=O)[C@H]2[C@H]3[C@H](O)[C@H](O)CC(=NO[C@@H](C)c4cn([C@H](CO)Cc5ccccc5)nn4)[C@@H]3CC[C@H]2C1=O",
    "number": 1.28
  },
  {
    "compound": "O=C(NN=C1C[C@@H](O)[C@@H](O)[C@@H]2[C@@H]3C(=O)N(C[C@@H]4CCCO4)C(=O)[C@@H]3CC[C@H]12)OCc1ccccc1",
    "number": -0.534
  }
]

----------
# assayComment: compound binding in COS7 lysate, probe aLAP1, primary screen, cell lysate, small-molecule microarray (AID 1124);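 also: lysate comes from COS7 cells expressing LAP1 and is applied at 0.3 µg/mL; score merges spot fluorescence near 667 nm with signal-to-noise over triplicate slides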
# experimentalConditions: probe aLAP1, fluorescence, higher = more signal
Listing of entries alongside the reported composite z-score.

[
  {
    "molecule": "C[C@@H]1CC[C@H]2C(=O)O[C@@H](Cc3ccccc3)CN2[C@H]1c1ccc(Br)cc1",
    "composite z-score": 0.912
  },
  {
    "molecule": "CCOC(=O)CCN1C(=O)[C@H]2[C@H]3[C@H](O)[C@H](O)CC(=NNC(=O)OCc4ccccc4)[C@@H]3CC[C@H]2C1=O",
    "composite z-score": 0.32
  },
  {
    "molecule": "O=C1CCCC(C2=CCCCC2=O)C1 (stereo not given)",
    "composite z-score": 0.0781
  },
  {
    "molecule": "O=C(NN=C1C[C@@H](O)[C@@H](O)[C@@H]2[C@@H]3C(=O)N(C[C@@H]4CCCO4)C(=O)[C@@H]3CC[C@H]12)OCc1ccccc1",
    "composite z-score": -0.0716
  },
  {
    "molecule": "COC(=O)[C@H](C)NC(=O)CCC1CC(OC(=O)NCCc2ccc(F)cc2)CC2(CCCC(COC(=O)NCc3cccc(C(F)(F)F)c3)O2)O1 (stereo not given in full)",
    "composite z-score": -0.363
  },
  {
    "molecule": "COc1ccc(O[C@H]2C=C[C@@H](c3ccccc3)O[C@@H]2CON=C2[C@H]3CCn4c(=O)n(-c5ccccc5)c(=O)n4[C@H]3[C@H](O)[C@@H]3O[C@H]23)cc1",
    "composite z-score": 0.244
  },
  {
    "molecule": "CCOC(=O)[C@H](CC(C)C)NC(=O)CCC1CC(OC(=O)NCc2cccc3ccccc23)CC2(CCCC(COC(=O)NCCc3ccc(Cl)cc3)O2)O1 (stereo not given in full)",
    "composite z-score": -0.175
  },
  {
    "molecule": "CC[C@@H](c1ccccc1)n1c(=O)n2n(c1=O)[C@H]1[C@H](O)[C@@H]3O[C@@H]3C(=NOC[C@@H](O)COCc3ccco3)[C@H]1CC2",
    "composite z-score": -0.955
  },
  {
    "molecule": "COC(=O)[C@@H]1CC[C@H](C)[C@@H](c2ccc(C)cc2)N1C(=O)c1ccc(C=NO[C@H](C)c2cn([C@H](CO)Cc3ccccc3)nn2)cc1",
    "composite z-score": 0.452
  },
  {
    "molecule": "Cn1c(=O)n2n(c1=O)[C@H]1[C@H](O)[C@@H]3O[C@@H]3C(=O)[C@H]1CC2",
    "composite z-score": 0.0837
  },
  {
    "molecule": "CCOC(=O)[C@H](CC(C)C)NC(=O)CCC1CC(OC(=O)NCc2cccc3ccccc23)CC2(CCCC(COC(=O)NCCOc3ccccc3)O2)O1 (stereo not given in full)",
    "composite z-score": 0.27
  },
  {
    "molecule": "C=CC[C@@H]1C=C[C@H](ON=C(C)CCC(=O)OC[C@H]2O[C@H](c3ccccc3)C=C[C@@H]2Oc2ccc(OC)cc2)[C@@H](CO)O1",
    "composite z-score": -0.0007
  },
  {
    "molecule": "O=C1[C@H]2[C@H]3[C@H](O)[C@H](O)CC(=NOC[C@@H](O)COCc4ccco4)[C@@H]3CC[C@H]2C(=O)N1C[C@@H]1CCCO1",
    "composite z-score": 0.174
  },
  {
    "molecule": "COC(=O)CC=C[C@@H](C)[C@@H](C=NO[C@@H](C)c1cn([C@H](CO)Cc2ccccc2)nn1)OC",
    "composite z-score": 0.137
  },
  {
    "molecule": "COc1ccc(O[C@@H]2[C@H](O)CO[C@H]2C=Cc2ccccc2)cc1",
    "composite z-score": -0.798
  },
  {
    "molecule": "CCOC(=O)[C@H](CC(C)C)NC(=O)CCC1CC(OC(=O)NCc2cccc3ccccc23)CC2(CCCC(COC(=O)NCc3cccc(C(F)(F)F)c3)O2)O1 (stereo not given in full)",
    "composite z-score": 0.127
  },
  {
    "molecule": "COC(=O)[C@H]1O[C@@H](c2c(OC)c(OC)c(C)c(OC)c2OC)[C@H](C)[C@@H](O)[C@H]1C",
    "composite z-score": -0.203
  },
  {
    "molecule": "CCN1C(=O)[C@H]2[C@H]3[C@H](O)[C@H](O)CC(=NOCC(C)C)[C@@H]3CC[C@H]2C1=O",
    "composite z-score": -0.202
  },
  {
    "molecule": "Cc1cc2c(nc1C)CCCCN2CC(C)ON=C1[C@H]2CCn3c(=O)n(-c4ccccc4)c(=O)n3[C@H]2[C@H](O)[C@@H]2O[C@H]12 (stereo not given in full)",
    "composite z-score": 0.0072
  },
  {
    "molecule": "COc1cc(O)c(C(=O)C=Cc2ccc3c(c2)OCO3)c(OC)c1",
    "composite z-score": -0.185
  },
  {
    "molecule": "COC(=O)CC=C[C@@H](C)[C@@H](C=NOCC[C@@H]1C=C[C@H](OC(C)=O)[C@@H](COC(C)=O)O1)NS(=O)(=O)c1ccc(C)cc1",
    "composite z-score": 0.195
  },
  {
    "molecule": "CC(C)=CCCC(C)=CCON=C1C[C@@H](O)[C@@H](O)[C@@H]2[C@@H]3C(=O)N(C(C)(C)C)C(=O)[C@@H]3CC[C@@H]12",
    "composite z-score": -0.0115
  },
  {
    "molecule": "CC(C)(C)N1C(=O)[C@H]2[C@H]3[C@H](O)[C@H](O)CC(=NOCc4ccccc4)[C@H]3CC[C@H]2C1=O",
    "composite z-score": 0.699
  },
  {
    "molecule": "CC(C)=CCCC(C)=CCON=C1C[C@@H](O)[C@@H](O)[C@@H]2[C@@H]3C(=O)N(c4ccc(F)cc4F)C(=O)[C@@H]3CC[C@H]12",
    "composite z-score": 0.402
  },
  {
    "molecule": "O=C1C=C[C@@H](O)[C@@H]2[C@@H]3C(=O)N(c4ccc(F)cc4F)C(=O)[C@@H]3CC[C@@H]12",
    "composite z-score": -0.113
  },
  {
    "molecule": "Cc1cc2c(c(=O)o1)[C@@H](O)[C@H]1O[C@H]1C2=O",
    "composite z-score": -0.108
  },
  {
    "molecule": "COC(=O)C=CCCc1coc(C=CCNC(=O)OC)n1",
    "composite z-score": 0.146
  },
  {
    "molecule": "C=CC[C@@H]1C=C[C@H](ON=C(C)CCC(=O)OC[C@H]2O[C@H](C#Cc3ccccc3)C=C[C@@H]2Oc2ccc(C)cc2)[C@@H](CO)O1",
    "composite z-score": 0.441
  },
  {
    "molecule": "CO[C@@H]1COC(=O)[C@H](CCSC)NC(=O)CC=C[C@@H](C)COC(=O)CCC[C@H]1C",
    "composite z-score": 1.01
  },
  {
    "molecule": "C[C@@H]1NC(=O)[C@@H](C)COC(=O)[C@H](C)NC(=O)[C@@H](C)COC1=O",
    "composite z-score": -0.706
  }
]
